- System Under Test: human A2A receptor (Homo sapiens (Human))
- Sequence (P29274 whole entry): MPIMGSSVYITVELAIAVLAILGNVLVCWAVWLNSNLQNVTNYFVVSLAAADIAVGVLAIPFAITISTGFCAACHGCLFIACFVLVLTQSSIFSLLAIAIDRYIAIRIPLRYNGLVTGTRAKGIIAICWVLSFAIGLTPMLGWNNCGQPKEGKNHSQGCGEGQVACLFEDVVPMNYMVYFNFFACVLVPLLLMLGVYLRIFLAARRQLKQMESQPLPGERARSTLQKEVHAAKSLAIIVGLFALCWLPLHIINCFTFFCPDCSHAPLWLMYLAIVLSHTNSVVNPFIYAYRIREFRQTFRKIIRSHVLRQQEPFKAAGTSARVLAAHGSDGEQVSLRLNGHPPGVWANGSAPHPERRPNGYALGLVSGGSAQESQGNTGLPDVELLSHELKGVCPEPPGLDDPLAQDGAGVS
- Test Details: Intracellular cAMP functional assay (HTRF), A2A
- Format: cell-based
- Condition Context: HEK293 cells expressing recombinant human receptor
Please respond with reported pEC50 for every item in the list.
# pEC50 is unitless: minus log10 of the molar concentration; print number only

input: Which pEC50 reading was recorded for the molecule CCc1nc(Nc2nc(-c3cccc(C#N)c3)c(-n3ccnc3CO)s2)n[nH]1 [Compound 20] ?
output: 5.47

input: # repeat for Cc1nc(Nc2nc(-c3cccc(C#N)c3)c(-n3ccnc3CO)s2)n[nH]1 [Compound 21]
output: 5.16

input: Can you handle Cc1cc(-c2sc(Nc3n[nH]c(C4CC4)n3)nc2-c2cccc(C#N)c2)c(C)cn1 [Compound 4] next?
output: 5.41

input: Also, N#Cc1cccc(-c2nc(Nc3n[nH]c(C4CC4)n3)sc2-n2ccnc2CO)c1 [Compound 17] please.
output: 7.00

input: Another molecule: Cc1cnccc1-c1sc(Nc2n[nH]c(C3CC3)n2)nc1-c1cccc(C#N)c1 [Compound 3]
output: 6.92

----------
- System Under Test: human A2B receptor (Homo sapiens (Human))
- Sequence (P29275 whole entry): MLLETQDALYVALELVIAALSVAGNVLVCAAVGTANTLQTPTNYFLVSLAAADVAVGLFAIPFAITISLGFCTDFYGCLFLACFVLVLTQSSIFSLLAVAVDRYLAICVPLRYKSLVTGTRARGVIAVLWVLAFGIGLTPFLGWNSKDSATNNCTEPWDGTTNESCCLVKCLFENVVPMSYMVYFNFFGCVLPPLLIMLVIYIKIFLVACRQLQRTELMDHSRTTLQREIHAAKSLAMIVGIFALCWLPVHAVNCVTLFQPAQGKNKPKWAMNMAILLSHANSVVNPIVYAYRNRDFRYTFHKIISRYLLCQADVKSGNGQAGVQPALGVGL
- Test Details: Intracellular cAMP functional assay (HTRF), A2B
- Type: cell-based
- Condition Context: HEK293 cells expressing recombinant human receptor
Readout Name: log10 of EC50 (log10 of the value in nM)
Plainly stated, the numbers are log10 of EC50 given in nM.

input: I'd like to know its log10 of EC50. The molecule in question is Cc1nc(Nc2nc(-c3cccc(C#N)c3)c(-n3ccnc3CO)s2)n[nH]1 [Compound 21]
output: 0.21

input: Input N#Cc1cccc(-c2nc(Nc3n[nH]c(C4CC4)n3)sc2-c2ccncc2)c1 [Compound 26]
output: -0.15

input: Thanks! And Cc1nccn1-c1sc(Nc2n[nH]c(C3CC3)n2)nc1-c1cccc(C#N)c1 [Compound 8] ?
output: 0.46

input: Then this molecule: Cc1cnncc1-c1sc(Nc2n[nH]c(C3CC3)n2)nc1-c1cccc(C#N)c1 [Compound 23]
output: 0.83

input: And Cc1cc(-c2sc(Nc3n[nH]c(CO)n3)nc2-c2cccc(C#N)c2)c(C)cn1 [Compound 14] ?
output: 0.48

input: Moving on to the next molecule: Cc1nccn1-c1sc(Nc2n[nH]c(C3CC3)n2)nc1-c1cc(C#N)ccc1F [Compound 18]
output: 1.52

input: Quick one: N#Cc1cccc(-c2nc(Nc3nc[nH]n3)sc2-n2ccnc2CO)c1 [Compound 19]
output: 0.30

input: What about CCc1nccn1-c1sc(Nc2n[nH]c(C)n2)nc1-c1cccc(C#N)c1 [Compound 16] ?
output: 0.34

----------
- System Under Test: human A3 receptor (Homo sapiens (Human), UniProt P0DMS8)
- Sequence (P0DMS8 whole entry): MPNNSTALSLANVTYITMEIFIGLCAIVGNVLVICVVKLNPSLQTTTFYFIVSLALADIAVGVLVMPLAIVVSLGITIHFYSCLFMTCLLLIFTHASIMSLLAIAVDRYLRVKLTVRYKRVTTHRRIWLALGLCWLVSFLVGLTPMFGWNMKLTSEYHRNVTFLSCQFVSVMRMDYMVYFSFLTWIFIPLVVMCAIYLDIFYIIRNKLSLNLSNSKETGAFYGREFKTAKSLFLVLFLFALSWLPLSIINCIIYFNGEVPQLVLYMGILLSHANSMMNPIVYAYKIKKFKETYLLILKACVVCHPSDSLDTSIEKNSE
- Test Details: Intracellular cAMP functional assay (HTRF), A3
- Assay type: cell-based
- Condition Context: HEK293 cells expressing recombinant human receptor
pEC50: −log10 of the molar value.
I'd be grateful if you could share measured pEC50 for these entries.

input: Sample Cc1cnncc1-c1sc(Nc2n[nH]c(C3CC3)n2)nc1-c1cccc(C#N)c1 [Compound 23] — what was its pEC50?
output: < 4.52

input: Same for Cc1nccc(-c2sc(Nc3n[nH]c(C4CC4)n3)nc2-c2cccc(C#N)c2)c1C [Compound 6]
output: 5.69

input: Try N#Cc1cccc(-c2nc(Nc3n[nH]c(C4CC4)n3)sc2-c2ccncn2)c1 [Compound 24] next.
output: < 4.52

input: Please give the result for N#Cc1cccc(-c2nc(Nc3nc[nH]n3)sc2-n2ccnc2CO)c1 [Compound 19] too.
output: < 5.47

input: Moving on to N#Cc1cccc(-c2nc(Nc3n[nH]c(C4CC4)n3)sc2-c2ccncc2Cl)c1 [Compound 5]
output: 5.63

input: Item: Cc1cc(-c2sc(Nc3n[nH]c(C)n3)nc2-c2cccc(C#N)c2)c(C)cn1 [Compound 13]
output: < 4.70

input: Now this one: Cc1nccn1-c1sc(Nc2n[nH]c(C3CC3)n2)nc1-c1cccc(C#N)c1 [Compound 8]
output: < 4.70

input: Same thing, different compound: Cc1cncnc1-c1sc(Nc2n[nH]c(C3CC3)n2)nc1-c1cccc(C#N)c1 [Compound 27]
output: < 4.52

input: How about this compound: Cc1cc(-c2sc(Nc3n[nH]c(CO)n3)nc2-c2cccc(C#N)c2)c(C)cn1 [Compound 14]
output: < 4.70

input: Same thing, different compound: Cc1cc(-c2sc(Nc3n[nH]c(C4CC4)n3)nc2-c2cccc(C#N)c2)ccn1 [Compound 7]
output: 5.76

input: Would you mind doing N#Cc1cccc(-c2nc(Nc3n[nH]c(C4CC4)n3)sc2-c2ccncc2F)c1 [Compound 2] as well?
output: < 4.70

input: // repeat for Cc1cc(-c2sc(Nc3n[nH]c(C4CC4)n3)nc2-c2cccc(C#N)c2)c(C)cn1 [Compound 4] and report
output: < 4.70
